Below are IC50 values recorded for Replicase polyprotein 1ab (Severe acute respiratory syndrome-related coronavirus).
The figure you give is taken to be in µM; do not add the unit.

Short answer for CC1=C(O)C(=O)C=C2C1=CC=C1[C@@]2(C)CC[C@@]2(C)[C@@H]3C[C@](C)(C(=O)O)CC[C@]3(C)CC[C@]12C [CELASTROL] : IC50 was 10.3

Short answer for CC1=C(O)C(=O)C=C2C1=CC=C1[C@@]2(C)CC[C@@]2(C)[C@@H]3C[C@@H](C)C(=O)C[C@]3(C)CC[C@]12C [TINGENONE] : IC50 was 9.9

Short answer for COC(=O)[C@]1(C)CC[C@]2(C)CC[C@]3(C)C4=CC=C5C(=CC(=O)C(O)=C5C)[C@]4(C)CC[C@@]3(C)[C@@H]2C1 [PRISTIMERIN] : IC50 was 5.5

Short answer for Cc1c(O)c(O)cc2c1CC=C1[C@@]2(C)CC[C@@]2(C)[C@@H]3C[C@](C)(C(=O)O)CC[C@]3(C)CC[C@]12C [DIHYDROCELASTROL] : IC50 was 21.7

Short answer for COc1cc(/C=C/C(=O)CC(=O)/C=C/c2ccc(O)c(OC)c2)ccc1O [CURCUMIN] : IC50 was 23.5
